Taken from PubChem BioAssay (NCI).

test system: OVCAR-5 ovarian; experiment: NCI tumour cell line growth inhibition, 48 h
ENDPOINT: TGI

Below, each entry is followed by its recorded TGI result.
| COMPOUND | TARGET_OF_ASSAY | TGI |
| --- | --- | --- |
| O=C(c1ccccc1)c1ccc2c(c1)NC(=O)c1ccccc1SSc1ccccc1C(=O)N2 | OVCAR-5 ovarian | > 100 µM |
| Cc1nc2ccccc2c(-n2cccn2)c1CCn1cccn1 | OVCAR-5 ovarian | > 100 µM |
| CSc1nc2c(c(N(C)C)n1)C(O)n1c(nc3ccccc31)S2 (stereo unspecified) | OVCAR-5 ovarian | > 100 µM |
| CCCCCCCCCCCC[N+]12CC[N+](CCN)(CC1)CC2 | OVCAR-5 ovarian | 38.1 µM |
| CCOC(=O)Nc1c(C)nc2ccccn12 | OVCAR-5 ovarian | > 100 µM |
| COC(=N)c1csc(C2OC(CO)C(O)C2O)n1 (stereo unspecified) | OVCAR-5 ovarian | > 100 µM |
| CCOC(=O)CNC(=O)NC12CC3CC(CC(C3)C1)C2 | OVCAR-5 ovarian | > 550 µM |
| CC(C)=CCC1=C(O)c2ccccc2C(=O)C1=O | OVCAR-5 ovarian | > 100 µM |

State recorded TGI with OVCAR-5 ovarian, entry [N-]=[N+]=CC(=O)OC(CCl)CCl , no comment.
> 100 µM

State recorded TGI with OVCAR-5 ovarian, entry Cn1ncc2c(NCc3ccccc3)ncnc21 , no comment.
> 100 µM

State recorded TGI with OVCAR-5 ovarian, entry O=C(Nc1nc(-c2c[nH]c3ccccc23)cs1)c1n[nH]c(=O)c2ccccc12 , no comment.
> 100 µM

State recorded TGI with OVCAR-5 ovarian, entry COc1cc2c(cc1OCCCN1CCN(CCCOc3cc4c(cc3OC)C(=O)N3CC(F)(F)C[C@H]3C=N4)CC1)N=C[C@@H]1CC(F)(F)CN1C2=O , no comment.
11.4 µM

State recorded TGI with OVCAR-5 ovarian, entry O=c1cccc(C#CC#C[C@@H]2O[C@H]2CO)o1 , no comment.
1.88 µM

---

tested on: A498 renal; test: NCI tumour cell line growth inhibition, 48 h
Listed next: entries and their corresponding GI50.

Below, each entry is followed by its recorded GI50 result.
| COMPOUND | TARGET_OF_ASSAY | GI50 |
| --- | --- | --- |
| COc1cccc2c1O/C(=C\c1ccc([N+](=O)[O-])s1)C2=O | A498 renal | > 100 µM |
| COC(=O)C1=CN(CC2=CC(=O)C(C)=CC2=O)C=C(C(=O)OC)C1c1ccccc1OC | A498 renal | 31.4 µM |
| N#CC(I)CS(=O)(=O)c1ccccc1 (stereo unspecified) | A498 renal | 35.4 µM |
| O=C(Nc1nc(-c2c[nH]c3ccccc23)cs1)c1n[nH]c(=O)c2ccccc12 | A498 renal | 22 µM |
| CCCCCCn1c(-c2ccc(C(=O)O/N=C(\N)c3ccc4c(c3)OCO4)cc2)nc(-c2ccccc2)c1-c1ccccc1 | A498 renal | 1.01 µM |

Okay, next one:
Give me measured GI50, please, for this compound: CCOC(=O)Nc1c(C)nc2ccccn12
> 100 µM

---

test system: OVCAR-4 ovarian; experiment: NCI tumour cell line growth inhibition, 48 h
ENDPOINT: TGI

Below, each entry is followed by its recorded TGI result.
| COMPOUND | TGI |
| --- | --- |
| Cc1nc2ccccc2c(-n2cccn2)c1CCn1cccn1 | > 100 µM |
| COc1cc(O)c2c(=O)c(OC)c(-c3ccc(OC)c(O)c3)oc2c1 | > 100 µM |
| CCN(CC)c1ccc(/C=C/c2ccnc3ccccc23)cc1 | > 100 µM |
| C[C@@H]1CC[C@H]2[C@H]1[C@H]1[C@@H](CC[C@]2(C)N=C=S)C1(C)C | > 100 µM |
| C=C(C)C(C1C=C(CCC(C=O)=C(C)C)C(=O)O1)C1(OC)C=C(C)C(=O)O1 (stereo unspecified) | > 100 µM |

Give me measured TGI, please, for this compound: NC(=S)N/N=C/c1ncccc1O
> 929 µM

Give me measured TGI, please, for this compound: COc1ccc(-c2cc(=O)oc3c4c(ccc23)OCN(Cc2ccc(F)cc2)C4)cc1
43.2 µM
